Format: physicochemical
Settings: Table 11a
measured.parameter: ΔpKa = Classic-Galas

Consider the reported ΔpKa = Classic-Galas for these compounds:
**Q:** For "CCCCC/C=C\C/C=C\CCCCCCCCC(CCCCCCCC/C=C\C/C=C\CCCCC)OC(=O)CCCN(C)C" , what is its reported ΔpKa = Classic-Galas?
**A:** 2.66

**Q:** For CCCCC/C=C\C/C=C\CCCCCCCCOCC(CN(C)C)OCCCCCCCC/C=C\C/C=C\CCCCC (centres unmarked) , what is its reported ΔpKa = Classic-Galas?
**A:** 1.6

**Q:** For CCCCCCCC/C=C\CCCCCCCC(=O)OCC(CN(C)C)OC(=O)CCCCCCC/C=C\CCCCCCCC (centres unmarked) , what is its reported ΔpKa = Classic-Galas?
**A:** 1.8

Further cases:
**Q:** For "CCCCCCCCCCOC(=O)CCCCCN(CCO)CCCCCCCC(=O)OC(CCCCCCCC)CCCCCCCC" , what is its reported ΔpKa = Classic-Galas?
**A:** 3.12

**Q:** For "CCCCCCCCCOC(=O)CCCCCCCN(CCO)CCCCCCCC(=O)OC(CCCCCCCC)CCCCCCCC" , what is its reported ΔpKa = Classic-Galas?
**A:** 3.34

**Q:** For "CCCCCCCC(=O)N(CCCN(C)C)C(CCCCCCCCC(=O)OC(CCCCCC)CCCCCC)CCCCCCCCC(=O)OC(CCCCCC)CCCCCC" , what is its reported ΔpKa = Classic-Galas?
**A:** 3.04

**Q:** For CCCCC/C=C\C/C=C\CCCCCCCCC1(CCCCCCCC/C=C\C/C=C\CCCCC)OCC(CCN(C)C)O1 (centres unmarked) , what is its reported ΔpKa = Classic-Galas?
**A:** 2.32

**Q:** For CCCCCCCC(=O)N(CCCN1CCCC1)C(CCCCCCCCC(=O)OC(CCCC)CCCCCC)CCCCCCCCC(=O)OC(CCCC)CCCCCC (centres unmarked) , what is its reported ΔpKa = Classic-Galas?
**A:** 3.38

Measured values drawn from patent US12576040B2 for this set.
